Reference source for all entries: ChEMBL document CHEMBL1131242

The entries below are paired with their reported pKi.
target: Muscarinic acetylcholine receptor M1 (Rattus norvegicus, UniProt P08482); experiment: Affinity versus [3H]oxotremorine M (agonist) binding to Muscarinic acetylcholine receptor M1 in Rat Cerebral Cortical Membranes, (Kd=[…])
Sequence (P08482 whole entry): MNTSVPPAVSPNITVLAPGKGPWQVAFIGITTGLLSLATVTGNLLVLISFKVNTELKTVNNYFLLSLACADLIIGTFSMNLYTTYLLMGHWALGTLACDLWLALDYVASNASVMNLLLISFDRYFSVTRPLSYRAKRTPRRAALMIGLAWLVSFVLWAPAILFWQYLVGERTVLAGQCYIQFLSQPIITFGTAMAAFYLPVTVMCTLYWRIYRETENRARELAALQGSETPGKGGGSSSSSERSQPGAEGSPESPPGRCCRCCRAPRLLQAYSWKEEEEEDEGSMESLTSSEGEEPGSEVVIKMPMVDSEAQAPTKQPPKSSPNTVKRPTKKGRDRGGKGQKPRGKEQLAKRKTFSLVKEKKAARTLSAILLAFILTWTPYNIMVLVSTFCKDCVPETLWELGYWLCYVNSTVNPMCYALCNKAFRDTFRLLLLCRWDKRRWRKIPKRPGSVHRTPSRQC
Expect pKi as a plain number equal to -log10 of the molar concentration.

INPUT: For Muscarinic acetylcholine receptor M1 (Rattus norvegicus, UniProt P08482), provide pKi of COC(=O)[C@H]1CC2NC1CC[C@@H]2O (some centres undefined) please.
OUTPUT: 4.74

INPUT: For Muscarinic acetylcholine receptor M1 (Rattus norvegicus, UniProt P08482), provide pKi of CC(=O)OC1CC2CCCC1N2 (centres undefined) please.
OUTPUT: 8.25

INPUT: For Muscarinic acetylcholine receptor M1 (Rattus norvegicus, UniProt P08482), provide pKi of COC(=O)C1CC2CCCC1N2 (centres undefined) please.
OUTPUT: 6.59

INPUT: For Muscarinic acetylcholine receptor M1 (Rattus norvegicus, UniProt P08482), provide pKi of CC(=O)OC1CC2CCCC1N2C (centres undefined) please.
OUTPUT: 5.59

----------
biological target: Muscarinic acetylcholine receptor M1 (Rattus norvegicus, UniProt P08482); assay: Inhibition of binding of [3H]quinuclidinyl benzilate to Muscarinic acetylcholine receptor M1 in rat cerebral cortical membranes; format: cell membranes, Membrane
Endpoint Label: Ki
Reply with the number, then its unit.

[
  {
    "Molecule": "CC(=O)OC1CC2CCCC1N2 (configuration not stated)",
    "Ki": "21 µM"
  }
]

INPUT: Value lookup for Ki; key = CC(=O)OC1CC2CCCC1N2C (configuration not stated)
OUTPUT: 280 µM

----------
biological target: Neuronal acetylcholine receptor; alpha4/beta2 (Rattus norvegicus) (UniProt P09483+P12390); assay: Inhibition of binding of [3H]nicotine to Nicotinic acetylcholine receptor alpha4-beta2 in rat cerebral cortical membranes at 100 uM concentration; assay type: cell membranes; conditions: Membrane
# binarize inhibition: threshold 20% inclusive, high side True, low side False

Answered examples (5):
[
  {
    "Compound": "CC(=O)OC1CC2CC(=O)CC1N2C (stereo not given)",
    "System Name": "Neuronal acetylcholine receptor; alpha4/beta2 (Rattus norvegicus) (UniProt P09483+P12390)",
    "Category": "False"
  },
  {
    "Compound": "COC(=O)C1CC2NC1CCC2=O (stereo not given)",
    "System Name": "Neuronal acetylcholine receptor; alpha4/beta2 (Rattus norvegicus) (UniProt P09483+P12390)",
    "Category": "False"
  },
  {
    "Compound": "CC(=O)OC1CC2CC(=O)CC1N2 (stereo not given)",
    "System Name": "Neuronal acetylcholine receptor; alpha4/beta2 (Rattus norvegicus) (UniProt P09483+P12390)",
    "Category": "False"
  },
  {
    "Compound": "CCSC1CCC2NC1CC2C(=O)OC (stereo not given)",
    "System Name": "Neuronal acetylcholine receptor; alpha4/beta2 (Rattus norvegicus) (UniProt P09483+P12390)",
    "Category": "True"
  },
  {
    "Compound": "COC(=O)C1C(O)CC2CCC1N2C (stereo not given)",
    "System Name": "Neuronal acetylcholine receptor; alpha4/beta2 (Rattus norvegicus) (UniProt P09483+P12390)",
    "Category": "False"
  }
]

INPUT: Form field: inhibition at least 20%? Entry: COC(=O)C1CC2NC1CCC21SCCS1 (stereo not given)
OUTPUT: True

INPUT: Form field: inhibition at least 20%? Entry: COC(=O)[C@H]1CC2NC1CC[C@@H]2OC(C)=O (stereo not given in full)
OUTPUT: False

INPUT: Form field: inhibition at least 20%? Entry: CC(=O)O[C@@H]1CCC2NC1C[C@@H]2S(=O)(=O)c1ccccc1 (stereo not given in full)
OUTPUT: False

INPUT: Form field: inhibition at least 20%? Entry: COC(=O)[C@H]1CC2NC1CC[C@H]2OC(C)=O (stereo not given in full)
OUTPUT: False

INPUT: Form field: inhibition at least 20%? Entry: CC(=O)O[C@H]1CCC2NC1C[C@@H]2S(=O)(=O)c1ccccc1 (stereo not given in full)
OUTPUT: False
